- Test target: Monoamine oxidase A (MAOA) (Homo sapiens)
- Construct: the prostate cancer cell line LNCaP expressed a relatively high level of MAOA; endogenous in cells; host or cells: LNCaP cells (Cell Bank of the Chinese Academy of Sciences, Shanghai)
- Method description: MAOA inhibition activity assay in LNCaP cells (Cell MAOA Assay Kit)
- Type: cell-based
- Assay setup: LNCaP cells, 48 h treatment, substrate p-tyramine, with MAOB inhibitor pargyline; read-out: IC50 (nM), MAOA inhibitory activity in LNCaP cells
Recorded endpoint: IC50 (nM)
Kindly answer with a numeric value in nM, unit omitted.

Return reported IC50 for target or system Monoamine oxidase A (MAOA) (Homo sapiens), item CCCCN1/C(=C/C=C/C=C/C=C/C2=[N+](CCCC(=O)NNC(=O)c3ccncc3)c3ccc(C)cc3C2(C)C)C(C)(C)c2cc(OC)ccc21 [Compound G10] . 221

Report its IC50 with Monoamine oxidase A (MAOA) (Homo sapiens) as the test system: CCCCN1/C(=C/C=C/C=C/C=C/C2=[N+](CCCCCC(=O)NNC(=O)c3ccncc3)c3ccc(Br)cc3C2(C)C)C(C)(C)c2cc(OC)ccc21 [Compound G12] 661

Provide Monoamine oxidase A (MAOA) (Homo sapiens) IC50 reading for CCCCN1/C(=C/C=C/C=C/C=C/C2=[N+](CCCCCC(=O)NNC(=O)c3ccncc3)c3ccc(C)cc3C2(C)C)C(C)(C)c2cc(OC)ccc21 [Compound G11] . 469

====

- Test target: Monoamine oxidase A (MAOA) (Homo sapiens, UniProt P21397)
- Construct: the prostate cancer cell line LNCaP expressed a relatively high level of MAOA; endogenous in cells; host or cells: LNCaP cells (Cell Bank of the Chinese Academy of Sciences, Shanghai)
- Sequence (P21397 whole entry): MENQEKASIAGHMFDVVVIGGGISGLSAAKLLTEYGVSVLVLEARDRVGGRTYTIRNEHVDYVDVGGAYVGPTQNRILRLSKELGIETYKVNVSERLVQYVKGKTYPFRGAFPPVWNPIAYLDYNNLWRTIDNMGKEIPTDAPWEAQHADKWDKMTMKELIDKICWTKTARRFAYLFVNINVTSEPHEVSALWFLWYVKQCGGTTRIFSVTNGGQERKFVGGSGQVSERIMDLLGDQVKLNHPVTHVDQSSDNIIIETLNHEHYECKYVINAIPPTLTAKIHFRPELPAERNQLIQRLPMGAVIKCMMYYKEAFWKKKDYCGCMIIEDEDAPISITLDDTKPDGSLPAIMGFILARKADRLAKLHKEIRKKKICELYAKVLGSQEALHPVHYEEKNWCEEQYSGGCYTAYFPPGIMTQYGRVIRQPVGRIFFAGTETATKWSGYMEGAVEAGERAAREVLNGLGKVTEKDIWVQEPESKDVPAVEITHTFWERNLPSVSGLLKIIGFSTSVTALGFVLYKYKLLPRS
- Method description: MAOA inhibition activity assay in LNCaP cells (Cell MAOA Assay Kit)
- Type: cell-based
Recorded endpoint: IC50

Return the recorded IC50 value; entry: NNC(=O)c1ccncc1 [INH, isoniazid, reference compound] > 1000 nM
